The measured values listed here are drawn from ChEMBL document CHEMBL3352542.

- protocol: Growth inhibition of human LOXIMVI cells at 10 uM after 48 hrs
- Assay type: functional
- test_context: LOX IMVI, read-out: GI
metric: inhibition of growth at 10 µM (%)
# number only, unit % dropped from output

In: What value of inhibition of growth at 10 µM has been reported for the following molecule? `COc1cc2nc(Sc3sc(N)nc3C)n(-c3ccc(Oc4ccccc4)cc3)c(=O)c2cc1OC`
Out: 21.7

In: What value of inhibition of growth at 10 µM has been reported for the following molecule? `COc1ccc(-n2c(Sc3sc(N)nc3C)nc3ccc(C)cc3c2=O)cc1`
Out: 11

In: What value of inhibition of growth at 10 µM has been reported for the following molecule? `Cc1nc(N)sc1Sc1nc2ccc(Cl)cc2c(=O)n1-c1ccc(Oc2ccccc2)cc1`
Out: 24.5

In: What value of inhibition of growth at 10 µM has been reported for the following molecule? `Cc1ccc2nc(Sc3sc(N)nc3C)n(-c3ccc(Cl)cc3)c(=O)c2c1`
Out: 16.5

In: What value of inhibition of growth at 10 µM has been reported for the following molecule? `Cc1ccc2nc(Sc3sc(N)nc3C)n(Cc3ccccc3)c(=O)c2c1`
Out: 19.5

New cases:
In: What value of inhibition of growth at 10 µM has been reported for the following molecule? `Cc1nc(N)sc1Sc1nc2ccc(Cl)cc2c(=O)n1Cc1ccccc1`
Out: 23.2

----------
- Test system: Staphylococcus aureus
- protocol: Antimicrobial activity against Staphylococcus aureus assessed as inhibition of visible growth after 24 hrs by disc-diffusion method
- Type: functional, organism-based
Calls of active or inactive are those of the source. The rule behind the calls is not given here.
metric: Activity

In: For the record `Nc1nnc(Sc2nc3ccc(Cl)cc3c(=O)n2-c2ccc(Cl)cc2)s1` , what value of Activity is listed for Staphylococcus aureus?
Out: Active

In: For the record `Cc1ccc(-n2c(Sc3sc(N)nc3C)nc3ccc(Cl)cc3c2=O)cc1` , what value of Activity is listed for Staphylococcus aureus?
Out: Active

In: For the record `Cc1ccc2nc(Sc3sc(N)nc3C)n(Cc3ccccc3)c(=O)c2c1` , what value of Activity is listed for Staphylococcus aureus?
Out: Active

In: For the record `COc1cc2nc(Sc3sc(N)nc3C)n(Cc3ccccc3)c(=O)c2cc1OC` , what value of Activity is listed for Staphylococcus aureus?
Out: Active

----------
- protocol: Growth inhibition of human PC3 cells at 10 uM after 48 hrs
- Type: functional
- test_context: PC-3, 48 h, read-out: GI
metric: inhibition of growth at 10 µM (%)
# number only, unit % dropped from output

In: What value of inhibition of growth at 10 µM has been reported for the following compound? `COc1cc2nc(Sc3nnc(N)s3)n(-c3ccc(Oc4ccccc4)cc3)c(=O)c2cc1OC`
Out: 23.2

In: What value of inhibition of growth at 10 µM has been reported for the following compound? `Cc1nc(N)sc1Sc1nc2ccc(Cl)cc2c(=O)n1-c1ccc(Oc2ccccc2)cc1`
Out: 51.1

New cases:
In: What value of inhibition of growth at 10 µM has been reported for the following compound? `Cc1ccc(-n2c(Sc3nnc(N)s3)nc3ccc(C)cc3c2=O)cc1`
Out: 11.8

----------
- Test system: Staphylococcus aureus
- protocol: Antimicrobial activity against Staphylococcus aureus assessed as inhibition zone at 200 ug/disk after 24 hrs by disc-diffusion method
- Type: functional
- test_context: read-out: IZ
zone of inhibition at 200 µg/disc listing for selected compounds.
# number only, unit mm dropped from output

Record excerpt, results attached:
In: What value of zone of inhibition at 200 µg/disc has been reported for the following compound? `COc1cc2nc(Sc3nnc(N)s3)n(-c3ccc(Cl)cc3)c(=O)c2cc1OC`
Out: 8

In: What value of zone of inhibition at 200 µg/disc has been reported for the following compound? `COc1cc2nc(Sc3sc(N)nc3C)n(-c3ccccc3)c(=O)c2cc1OC`
Out: 8

In: What value of zone of inhibition at 200 µg/disc has been reported for the following compound? `Cc1ccc2nc(Sc3nnc(N)s3)n(-c3ccc(Oc4ccccc4)cc3)c(=O)c2c1`
Out: 8

In: What value of zone of inhibition at 200 µg/disc has been reported for the following compound? `Nc1nnc(Sc2nc3ccc(Cl)cc3c(=O)n2Cc2ccccc2)s1`
Out: 8

In: What value of zone of inhibition at 200 µg/disc has been reported for the following compound? `Cc1ccc(-n2c(Sc3nnc(N)s3)nc3ccc(Cl)cc3c2=O)cc1`
Out: 18

In: What value of zone of inhibition at 200 µg/disc has been reported for the following compound? `COc1cc2nc(Sc3sc(N)nc3C)n(-c3ccc(Oc4ccccc4)cc3)c(=O)c2cc1OC`
Out: 8

New cases:
In: What value of zone of inhibition at 200 µg/disc has been reported for the following compound? `COc1ccc(-n2c(Sc3sc(N)nc3C)nc3ccc(Cl)cc3c2=O)cc1`
Out: 8

In: What value of zone of inhibition at 200 µg/disc has been reported for the following compound? `Nc1nnc(Sc2nc3ccc(Cl)cc3c(=O)n2-c2ccc(Oc3ccccc3)cc2)s1`
Out: 8

In: What value of zone of inhibition at 200 µg/disc has been reported for the following compound? `Cc1nc(N)sc1Sc1nc2ccc(Cl)cc2c(=O)n1Cc1ccccc1`
Out: 18

In: What value of zone of inhibition at 200 µg/disc has been reported for the following compound? `COc1cc2nc(Sc3nnc(N)s3)n(-c3ccc(Oc4ccccc4)cc3)c(=O)c2cc1OC`
Out: 8

----------
- protocol: Growth inhibition of human SF539 cells at 10 uM after 48 hrs
- Format: functional
- test_context: SF-539, 48 h, read-out: GI
metric: inhibition of growth at 10 µM (%)
# number only, unit % dropped from output

Record excerpt, results attached:
In: What value of inhibition of growth at 10 µM has been reported for the following compound? `Cc1ccc2nc(Sc3sc(N)nc3C)n(Cc3ccccc3)c(=O)c2c1`
Out: 15.1

In: What value of inhibition of growth at 10 µM has been reported for the following compound? `Cc1ccc2nc(Sc3sc(N)nc3C)n(-c3ccc(Cl)cc3)c(=O)c2c1`
Out: 13.9

In: What value of inhibition of growth at 10 µM has been reported for the following compound? `Cc1ccc(-n2c(Sc3nnc(N)s3)nc3ccc(C)cc3c2=O)cc1`
Out: 15.6

New cases:
In: What value of inhibition of growth at 10 µM has been reported for the following compound? `COc1cc2nc(Sc3sc(N)nc3C)n(-c3ccc(Oc4ccccc4)cc3)c(=O)c2cc1OC`
Out: 18.7

----------
- protocol: Growth inhibition of human OVCAR8 cells at 10 uM after 48 hrs
- Assay type: functional
- test_context: OVCAR-8, 48 h, read-out: GI
inhibition of growth at 10 µM listing for selected molecules.
# number only, unit % dropped from output

In: What value of inhibition of growth at 10 µM has been reported for the following molecule? `Cc1ccc2nc(Sc3sc(N)nc3C)n(-c3ccc(Cl)cc3)c(=O)c2c1`
Out: 10.8

----------
- protocol: Growth inhibition of human UO31 cells at 10 uM after 48 hrs
- Assay type: functional
- test_context: UO-31, 48 h, read-out: GI
metric: inhibition of growth at 10 µM (%)
# number only, unit % dropped from output

In: What value of inhibition of growth at 10 µM has been reported for the following compound? `COc1ccc(-n2c(Sc3sc(N)nc3C)nc3ccc(C)cc3c2=O)cc1`
Out: 26.2

In: What value of inhibition of growth at 10 µM has been reported for the following compound? `COc1cc2nc(Sc3sc(N)nc3C)n(-c3ccccc3)c(=O)c2cc1OC`
Out: 32.3

In: What value of inhibition of growth at 10 µM has been reported for the following compound? `COc1ccc(-n2c(Sc3sc(N)nc3C)nc3ccc(Cl)cc3c2=O)cc1`
Out: 35.5

In: What value of inhibition of growth at 10 µM has been reported for the following compound? `COc1cc2nc(Sc3sc(N)nc3C)n(-c3ccc(Oc4ccccc4)cc3)c(=O)c2cc1OC`
Out: 23.9

In: What value of inhibition of growth at 10 µM has been reported for the following compound? `COc1cc2nc(Sc3nnc(N)s3)n(-c3ccc(Cl)cc3)c(=O)c2cc1OC`
Out: 23.6

In: What value of inhibition of growth at 10 µM has been reported for the following compound? `COc1cc2nc(Sc3nnc(N)s3)n(-c3ccccc3)c(=O)c2cc1OC`
Out: 14.2

Note: attention shifts to another entry.
In: What value of inhibition of growth at 10 µM has been reported for the following compound? `Cc1ccc(-n2c(Sc3nnc(N)s3)nc3ccc(C)cc3c2=O)cc1`
Out: 23.2

----------
- System: Escherichia coli
- protocol: Antimicrobial activity against Escherichia coli assessed as inhibition zone at 200 ug/disk after 24 hrs by disc-diffusion method
- Assay type: functional
- test_context: read-out: IZ
metric: zone of inhibition at 200 µg/disc (mm)
# number only, unit mm dropped from output

In: What value of zone of inhibition at 200 µg/disc has been reported for the following molecule? `Cc1nc(N)sc1Sc1nc2ccc(Cl)cc2c(=O)n1-c1ccc(Cl)cc1`
Out: 8

In: What value of zone of inhibition at 200 µg/disc has been reported for the following molecule? `Cc1ccc2nc(Sc3sc(N)nc3C)n(-c3ccc(Oc4ccccc4)cc3)c(=O)c2c1`
Out: 14

In: What value of zone of inhibition at 200 µg/disc has been reported for the following molecule? `COc1ccc(-n2c(Sc3nnc(N)s3)nc3cc(OC)c(OC)cc3c2=O)cc1`
Out: 8

In: What value of zone of inhibition at 200 µg/disc has been reported for the following molecule? `Cc1ccc2nc(Sc3nnc(N)s3)n(Cc3ccccc3)c(=O)c2c1`
Out: 8

In: What value of zone of inhibition at 200 µg/disc has been reported for the following molecule? `COc1ccc(-n2c(Sc3sc(N)nc3C)nc3ccc(Cl)cc3c2=O)cc1`
Out: 8

New cases:
In: What value of zone of inhibition at 200 µg/disc has been reported for the following molecule? `Cc1nc(N)sc1Sc1nc2ccc(Cl)cc2c(=O)n1Cc1ccccc1`
Out: 12

In: What value of zone of inhibition at 200 µg/disc has been reported for the following molecule? `Cc1ccc2nc(Sc3nnc(N)s3)n(-c3ccccc3)c(=O)c2c1`
Out: 8

In: What value of zone of inhibition at 200 µg/disc has been reported for the following molecule? `Nc1nnc(Sc2nc3ccc(Cl)cc3c(=O)n2Cc2ccccc2)s1`
Out: 12

In: What value of zone of inhibition at 200 µg/disc has been reported for the following molecule? `COc1cc2nc(Sc3sc(N)nc3C)n(-c3ccc(Cl)cc3)c(=O)c2cc1OC`
Out: 8

In: What value of zone of inhibition at 200 µg/disc has been reported for the following molecule? `Cc1ccc(-n2c(Sc3nnc(N)s3)nc3ccc(C)cc3c2=O)cc1`
Out: 8
